This collection of values is drawn from patent US10683311B2.

Property: chromatographic logP; scope: individual compounds
assay: log P by HPLC on reversed-phase column (C18), EEC Directive 79/831 Annex V.A8; type: physicochemical; settings: reversed-phase HPLC column (C18), logP Method A
// print number alone

Worked examples follow.
Compound | chromatographic logP
O=Cc1cccc(Oc2cnc3ccccc3c2)c1I [II.01A] | 3.29
CC[Si](CC)(CC)c1ccccc1O [IX.01A] | 4.72

Now, please, on to the next compound.
Param item = CC(=O)COc1ccccc1[Si](C)(C)C [XIV.01, 1-[2-(trimethylsilyl)phenoxy]acetone] ; retrieve measured chromatographic logP.
1.39

====

assay: log P by HPLC on reversed-phase column (C18), EEC Directive 79/831 Annex V.A8; type: physicochemical; conditions: logP Method A
Quantity Kind: logP
// print number alone

Compound | logP
Cc1nc2c(F)c(F)ccc2nc1Oc1ccc(F)cc1Br | 4.54
Cc1nc2c(F)c(F)ccc2nc1Oc1cccc(OC(F)(F)F)c1Br | 5.08
CCOc1nc2ccccc2cc1Oc1cccc(F)c1 | 4.74
Cc1nc2c(F)c(F)ccc2cc1Oc1cccc(F)c1[N+](=O)[O-] | 3.64
Cc1nc2c(F)c(F)ccc2nc1Oc1ccccc1Br | 4.38
Cc1nc2c(F)c(F)ccc2nc1Oc1ccc(Cl)cc1Br | 5.16

Param item = Cc1nc2ccccc2nc1Oc1cccc(F)c1Br ; retrieve measured logP.
4.11

Param item = Nc1ccccc1Oc1cnc2c(F)c(F)ccc2c1 ; retrieve measured logP.
2.71

Param item = Cc1cccc(Br)c1Oc1nc2ccc(F)c(F)c2nc1C ; retrieve measured logP.
4.80

Param item = Cc1nc2c(F)c(F)ccc2nc1Oc1c(F)cccc1Br ; retrieve measured logP.
2.67

Param item = Cc1cccc(Oc2nc3ccc(F)c(F)c3nc2C)c1Br ; retrieve measured logP.
4.85

Param item = Cc1nc2c(F)c(F)ccc2cc1Oc1cc([N+](=O)[O-])ccc1Br [II.06A] ; retrieve measured logP.
4.04

Param item = O=[N+]([O-])c1c(F)cccc1Oc1cnc2c(F)c(F)ccc2c1 ; retrieve measured logP.
3.35

Param item = CC1(C)OB(Cc2ccccc2[Si](C)(C)C)OC1(C)C ; retrieve measured logP.
5.68

Param item = Nc1c(F)cccc1Oc1cnc2c(F)c(F)ccc2c1 ; retrieve measured logP.
3.02

Param item = Cc1nc2ccccc2cc1Oc1cccc(F)c1N ; retrieve measured logP.
2.15

Param item = O=[N+]([O-])c1ccccc1Oc1cnc2c(F)c(F)ccc2c1 ; retrieve measured logP.
3.06
